Tested on: Puccinia recondita
ASSAY TEXT: Puccinia test (wheat)/curative
MEASUREMENT PARAMETERS: single active compound, application rate 62.5 g/ha, curative, evaluation 8 days after inoculation
PROPERTY: Efficacy in % found (%)
Hi! Could you send only the number? It should be in %, unit omitted.

Input: What does the record list as Efficacy in % found for CCCN(CC)CC1COC2(CCC(C(C)(C)C)CC2)O1 (centres unmarked) [(19-10) spiroxamine, spiroxamine, reference compound] ?
Output: 0

Input: What does the record list as Efficacy in % found for Cn1cc(C(=O)Nc2ccc(F)cc2-c2ccc(Cl)c(Cl)c2)c(C(F)F)n1 ?
Output: 22

Input: What does the record list as Efficacy in % found for N#Cc1ccccc1NC(=O)c1snc(Cl)c1Cl ?
Output: 0

Input: What does the record list as Efficacy in % found for CO/C=C(/C(=O)OC)c1ccccc1COc1cccc(C(F)(F)F)n1 ?
Output: 78

Input: What does the record list as Efficacy in % found for CC(C)CC(C)c1sccc1NC(=O)c1cn(C)nc1C(F)(F)F (centres unmarked) ?
Output: 44

###

System: Sphaerotheca fuliginea
ASSAY TEXT: Sphaerotheca fuliginea test (cucumber)/protective
Format: in vivo
MEASUREMENT PARAMETERS: Podosphaera fuliginea, 168 h, protective, 7 days after inoculation, application rate 1 g/ha, read-out: Efficacy in % found
PROPERTY: pest or weed control at 1 g/ha (%)
Hi! Could you send only the number? It should be in %, unit omitted.

Input: What does the record list as pest or weed control at 1 g/ha for CO/N=C(/C1=NOCCO1)c1ccccc1Oc1ncnc(Oc2ccccc2Cl)c1F [(2-2) fluoxastrobin, fluoxastrobin, reference compound] ?
Output: 0

Input: What does the record list as pest or weed control at 1 g/ha for Cn1cc(C(=O)Nc2ccc(F)cc2-c2ccc(Cl)c(Cl)c2)c(C(F)F)n1 ?
Output: 16

Input: What does the record list as pest or weed control at 1 g/ha for OC(Cc1ccccc1Cl)(Cn1ncnc1S)C1(Cl)CC1 (stereo not drawn) [(3-15) prothioconazole, prothioconazole, reference compound] ?
Output: 43

Input: What does the record list as pest or weed control at 1 g/ha for CC(C)[C@@H](C)Nc1c(-c2c(F)cc(F)cc2F)c(Cl)nc2ncnn12 [(22-2), reference compound] ?
Output: 22

Input: What does the record list as pest or weed control at 1 g/ha for Cc1nc(C(F)F)c(C(=O)Nc2ccccc2-c2ccc(Br)cc2)s1 ?
Output: 0

Input: What does the record list as pest or weed control at 1 g/ha for CC(C)(C)C(O)(CCc1ccc(Cl)cc1)Cn1cncn1 (stereo not drawn) [(3-17) tebuconazole, tebuconazole, reference compound] ?
Output: 10
